# System: OCI-AML2;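 further: after 48 h exposure read by CellTiter-Glo luminescence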
# Measurement Notes: cell viability relative to vehicle control; higher = less cytotoxic
# Condition Context: 10 µM; SRSF2 genotype: P95H/wt
Structures can show the parent of a compound that is named as a salt.
Response field label takes yes (1) when cell viability is strictly below 90% and no (0) in all other cases.

COc1nc(OCc2cccc(-c3ccccc3)c2C)ccc1CNCCNC(C)=O
yes (1)
NS(=O)(=O)Cc1noc2ccccc12 [Zonisamide]
yes (1)
C[C@@H]1O[C@@H](O[C@H]2[C@H](Oc3cc(O)c(C(=O)CCc4ccc(O)cc4)c(O)c3)O[C@H](CO)[C@@H](O)[C@@H]2O)[C@H](O)[C@H](O)[C@H]1O [Naringin Dihydrochalcone (Naringin DC)]
no (0)
C=C1CCC[C@]2(C)C=C3OC(=O)C(C)=C3C[C@@H]12 [Atractylenolide I]
no (0)
CC(ONC(=O)c1cc(C(F)(F)F)cc(C(F)(F)F)c1)C(=O)Nc1ccc(Cl)cc1 (stereo not given)
yes (1)
OC[C@H]1O[C@@H](n2cnc3c(O)nc(O)nc32)[C@H](O)[C@@H]1O
no (0)
CC(C)(N)C(=O)N[C@H](COCc1ccccc1)C(=O)N1CCC2(CC1)CN(S(C)(=O)=O)c1ccccc12 [Ibutamoren mesylate]
yes (1)
NNC(=O)c1ccncc1
no (0)
Cc1ccc(C(=O)c2cc(O)c(O)c([N+](=O)[O-])c2)cc1
no (0)
C[C@@H](CN1CC(=O)NC(=O)C1)N1CC(=O)NC(=O)C1 [Dexrazoxane]
no (0)
COC(=O)[C@@]1(C)CC[C@]2(C(=O)O)CC[C@]3(C)C(=CC[C@@H]4[C@@]5(C)C[C@H](O)[C@H](O[C@@H]6OC[C@@H](O[C@@H]7O[C@H](CO)[C@@H](O)[C@H](O)[C@H]7O)[C@H](O)[C@H]6O)[C@@](C)(CO)[C@@H]5CC[C@]43C)[C@@H]2C1 [Esculentoside A]
no (0)
